# AC50 annotations
test_system: UniProt P30613
test_protocol: Cell based ATP assay in purified red blood cells (Cell-Titer-Glo)
Set-up: endogenous in cells; host or cells: purified red blood cells from healthy volunteers
settings: Table 2; RBCs, overnight at 37° C., ATP levels

Please review the entries below; each comes with its answer.
- Cn1c2nc([S+](C)[O-])sc2c2cnn(Cc3cnc(N)nc3)c(=O)c21 (centres unmarked): > 1000 nM
- Cc1nc2c(s1)c1cnn(CCCO)c(=O)c1n2C: > 1000 nM
- Cn1c2nc(Cc3cccc(C#N)c3)sc2c2cnn(Cc3cccc4[nH]ncc34)c(=O)c21: ≤ 1000 nM
- Cn1c2nc(C(N)c3cc[nH]n3)sc2c2cnn(Cc3cccc4[nH]ncc34)c(=O)c21 (centres unmarked): ≤ 1000 nM

Now take the following compound into account.
What AC50 value was documented for this compound, `Cn1c2nc(C3(c4ccccc4)CC3)sc2c2cnn(Cc3cccc4[nH]ncc34)c(=O)c21` ?
> 1000 nM

----------
test_system: PKR K410E (Homo sapiens, UniProt P30613, K410E)
Sequence (P30613 whole entry K410E): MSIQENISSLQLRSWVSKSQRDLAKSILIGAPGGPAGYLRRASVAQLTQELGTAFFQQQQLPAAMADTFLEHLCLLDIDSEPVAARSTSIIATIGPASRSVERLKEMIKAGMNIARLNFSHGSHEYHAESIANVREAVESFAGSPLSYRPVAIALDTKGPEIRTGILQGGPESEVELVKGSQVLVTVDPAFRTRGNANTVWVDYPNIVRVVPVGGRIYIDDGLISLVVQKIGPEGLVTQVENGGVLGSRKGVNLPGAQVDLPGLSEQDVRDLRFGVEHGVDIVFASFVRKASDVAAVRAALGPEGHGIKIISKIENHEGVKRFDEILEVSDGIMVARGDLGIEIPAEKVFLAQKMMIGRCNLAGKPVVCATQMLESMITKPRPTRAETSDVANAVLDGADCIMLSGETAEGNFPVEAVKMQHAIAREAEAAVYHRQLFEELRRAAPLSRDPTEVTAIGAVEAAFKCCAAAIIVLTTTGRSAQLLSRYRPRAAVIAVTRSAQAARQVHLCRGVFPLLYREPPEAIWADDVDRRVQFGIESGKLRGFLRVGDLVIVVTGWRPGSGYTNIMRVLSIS
test_protocol: PKR mutant assay (K410E), AC50, LDH/NADH-coupled, absorbance at 340 nm
Assay type: biochemical
settings: Table 2; enzyme assay
measured_endpoint: AC50

Please review the entries below; each comes with its answer.
* COc1cccc(Cn2ncc3c4sc(C(C)(C)O)nc4n(C)c3c2=O)c1 [Compound 63] | < 300 nM
* Cn1c2nc(Cc3ccc4[nH]ncc4c3)sc2c2cnn(Cc3cccc4[nH]ncc34)c(=O)c21 [Compound 154] | < 300 nM

Now take the following compound into account.
What AC50 value was documented for this compound, Cn1c2nc(C(O)c3ccccn3)sc2c2cnn(Cc3cccc4[nH]ncc34)c(=O)c21 (stereo not drawn) [Compound 130] ?
> 800 nM

----------
test_system: PKR K410E (Homo sapiens, UniProt P30613, K410E)
test_protocol: PKR mutant assay (K410E), AC50, LDH/NADH-coupled, absorbance at 340 nm
settings: Table 4; AC50, enzyme assay
measured_endpoint: EC50

Please review the entries below; each comes with its answer.
* Cn1c2nc(Cc3cscn3)sc2c2cnn(Cc3cccc4[nH]ncc34)c(=O)c21 | < 300 nM
* Cn1c2nc(Cc3cc[nH]n3)sc2c2cnn(Cc3n[nH]c4ccccc34)c(=O)c21 | < 300 nM
* Cn1c2nc(Cc3cc[nH]n3)sc2c2cnn(Cc3ccc4oc(=O)[nH]c4n3)c(=O)c21 | < 300 nM
* Cn1c2nc(Cc3ccccn3)sc2c2cnn(Cc3ccccc3)c(=O)c21 | < 300 nM
* Cn1c2nc(Cn3cccn3)sc2c2cnn(Cc3cccc4[nH]ncc34)c(=O)c21 | < 300 nM
* Cn1c2nc(Cc3cc[nH]n3)sc2c2cnn(Cc3cccc4c3NS(=O)(=O)N4)c(=O)c21 | > 800 nM
* Cn1c2nc(Cc3c[nH]cn3)sc2c2cnn(Cc3cccc4[nH]ncc34)c(=O)c21 | < 300 nM
* Cn1ccc(Cn2ncc3c4sc(CCc5cccnc5)nc4n(C)c3c2=O)n1 | > 800 nM

Now take the following compound into account.
What EC50 value was documented for this compound, `Cn1c2nc(Cc3cc[nH]n3)sc2c2cnn(Cc3n[nH]c4ncccc34)c(=O)c21` ?
< 300 nM

----------
test_system: wild type PKR (Homo sapiens)
Sequence (P30613 whole entry): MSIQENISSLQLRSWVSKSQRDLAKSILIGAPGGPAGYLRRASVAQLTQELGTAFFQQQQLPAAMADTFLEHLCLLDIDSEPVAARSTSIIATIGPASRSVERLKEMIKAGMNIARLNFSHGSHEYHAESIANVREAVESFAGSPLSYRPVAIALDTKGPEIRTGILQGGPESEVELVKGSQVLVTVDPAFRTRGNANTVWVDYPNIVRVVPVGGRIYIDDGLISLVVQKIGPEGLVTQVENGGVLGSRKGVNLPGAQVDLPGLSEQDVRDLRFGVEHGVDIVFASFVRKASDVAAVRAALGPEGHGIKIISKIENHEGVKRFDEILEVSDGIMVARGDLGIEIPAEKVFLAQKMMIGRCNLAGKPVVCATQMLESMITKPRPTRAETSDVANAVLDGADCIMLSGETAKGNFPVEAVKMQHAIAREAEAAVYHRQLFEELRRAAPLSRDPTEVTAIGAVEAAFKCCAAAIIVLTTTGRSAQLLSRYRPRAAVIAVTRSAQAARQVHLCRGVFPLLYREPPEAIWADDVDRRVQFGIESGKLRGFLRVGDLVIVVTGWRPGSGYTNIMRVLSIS
test_protocol: Cell based ATP assay in purified red blood cells (Cell-Titer-Glo)
Parameters: endogenous in cells; host or cells: purified red blood cells from healthy volunteers
settings: Table 2; RBCs, overnight at 37° C., ATP levels
# AC50 annotations

- CC(=O)NCc1nc2c(s1)c1cnn(Cc3cccc4[nH]ncc34)c(=O)c1n2C [Compound 139]: ≤ 1000 nM
- COc1cccc(Cn2ncc3c4sc(C(=O)c5cccc(O)c5)nc4n(C)c3c2=O)c1 [Compound 55]: > 1000 nM
- COc1cccc(Cn2ncc3c4sc(Sc5ccccc5)nc4n(C)c3c2=O)c1 [Compound 34]: ≤ 1000 nM
- Cn1c2nc([S+](C)[O-])sc2c2cnn(Cc3cccc4[nH]ncc34)c(=O)c21 (stereo not drawn) [Compound 71]: ≤ 1000 nM
- Cc1nc2c(s1)c1cnn(Cc3cccc4[nH]ncc34)c(=O)c1n2C [Compound 26]: ≤ 1000 nM
- Cc1nc2c(s1)c1cnn(Cc3ccc(N)cc3)c(=O)c1n2C [Compound 49]: > 1000 nM
- Cn1c2nc(Cc3cc[nH]n3)sc2c2cnn(Cc3ccc(C(N)=O)cc3)c(=O)c21 [Compound 176]: > 1000 nM
- Cn1c2nc(Cc3cc(C(F)(F)F)[nH]n3)sc2c2cnn(Cc3cccc4[nH]ncc34)c(=O)c21 [Compound 160]: ≤ 1000 nM

What AC50 value was documented for this compound, CNc1ccc(Cc2nc3c(s2)c2cnn(Cc4cccc5[nH]ncc45)c(=O)c2n3C)cc1 [Compound 109] ?
≤ 1000 nM
